Assay: NCI Yeast Anticancer Drug Screen. Data for the sgs1 mgt1 strain (AID 161);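 also: 0% = growth of cultures given vehicle only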
Details: S. cerevisiae sgs1 mgt1 strain, at 50.0 µM
About 79,000 compounds went through this panel and 15% of them were active in at least one assay; those are over-represented in the sample as a whole. Calls of active or inactive are those of the source. Rule as the data show it: active = growth inhibition above about 70%; inactive = the rest.
Reply using exactly one outcome from yes (1) for active, no (0) for inactive

Previously resolved entries follow.
# molecule, labelClass
records = [
    ("CCc1ccc(NC(=O)c2cc(OC)c(OC)c(OC)c2)cc1", "no (0)"),
    ("CC1(C)CCC2(C(=O)OC3OC(CO)C(O)C(O)C3O)CCC3(CO)C(=CCC4C5(C)CC(O)C(O)C(C)(C(=O)OC6OC(CO)C(O)C(O)C6O)C5CCC43C)C2C1 (stereo not drawn)", "no (0)"),
    ("CCOC(=O)/C(C(C)=O)=C1\\C(=O)c2ccccc2-c2ccccc21", "no (0)"),
    ("O=C(N/N=C/c1ccccc1Cl)c1ccccc1", "no (0)"),
    ("CC(=O)ONc1nc(C)c(CCC2OCCO2)c(SC(=N)N)n1", "no (0)"),
    ("CCOC(=O)c1ccc(NC(=O)Nc2cc(Cl)c(OC)cc2OC)cc1", "yes (1)"),
    ("Cc1cnc2c(N)nc(-c3ccccc3)nc2n1", "no (0)"),
    ("CC(C)NC(=O)OCc1c(COC(=O)NC(C)C)c2n(c1-c1ccc(Cl)c(Cl)c1)CCS2(=O)=O", "no (0)"),
]

Asked: Short answer needed: outcome of this test for "CC(C)CCOC(=O)CC(CC(=O)OCCC(C)C)C(=O)OCCC(C)C" ?
Given back: no (0)

* * *

Test: NCI Yeast Anticancer Drug Screen. Data for the rad50 strain (AID 155);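 also: 0% = growth of vehicle-only cultures of the same strain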
Conditions: S. cerevisiae rad50 strain growth inhibition; at 50.0 µM; hits give high values
The panel holds about 79,000 compounds, 15% with a hit somewhere; the sample as a whole holds those more often. The source made the active and inactive calls. Rule as the data show it: active = growth inhibition above about 70%; inactive = the rest.
endpoint: growth inhibition

# compound, endpoint, val
measured = [
    ("Cc1ccc(NC2C=C(c3ccccc3)Oc3ccccc32)c(C)c1 (centres undefined)", "growth inhibition", "20.1% (inactive)"),
    ("CCOC(=O)Nc1c2ccccc2c(NC(=O)OCC)c2ccccc12", "growth inhibition", "30.2% (inactive)"),
    ("COc1ccccc1C(=O)c1ccccc1", "growth inhibition", "-27.4% (inactive)"),
]

// below: growth inhibition requested for another compound
Asked: Fill in the blank: the reported growth inhibition of "CC(C)(C)C(=O)C(C#N)C(=O)C(C)(C)C" is ____.
Given back: 8.75% (inactive)

* * *

Assay: NCI Yeast Anticancer Drug Screen. Data for the mec2-1 strain (AID 157)
Details: S. cerevisiae mec2-1 strain, at 50.0 µM, hits give high values
Protocol: Growth inhibition of yeast strains with defined genetic alterations is measured as a screen for potential anti-cancer activity. Selected strains with alterations in DNA damage repair or cell cycle control were exposed to compounds and growth inhibition was measured relative to vehicle treated controls. The strain used in this assay is mec2-1
Compounds without any hit were thinned out: in the full panel of roughly 79,000, 15% have a hit.
endpoint: growth inhibition (%)
Numbers only, in %.

Examples from the recorded data:
# molecule, unitInfo, growth inhibition
records = [
    ("CCCCON1C[C@@H](O)C(O)[C@@H](O)C1 (some centres not stated)", "%", 8.9),
    ("COC(=O)C(Cl)(Cl)c1nc(NC(C)=O)[nH]c(=O)c1Cl", "%", 13.3),
    ("C=CCOC(=O)C(CC=C)C(C)=O (configuration not stated)", "%", -21.9),
]

Could I get growth inhibition for every one of these entries?
1. COc1ccc(/C(=N\O)C(c2ccc(OC)cc2)C(Cl)(Cl)Cl)cc1 (configuration not stated)
2. CCCC(=O)C1=C(O)C(CC2=C(O)C(C)(C)C(=O)C(C(=O)CCC)=C2O)=C(O)C(C)(C)C1=O
3. COc1ccc(C23OC2Oc2cc(OC4CCCCO4)ccc2C3=O)cc1 (configuration not stated)
4. COc1ccc(-n2cnc3[nH]ncc3c2=O)cc1

Given back:
1. 38.9
2. -12.4
3. -8.45
4. 0.75

* * *

Give measured growth inhibition for each item. Keep answers brief.
Test: NCI Yeast Anticancer Drug Screen. Data for the rad50 strain (AID 155);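 also: 0% = growth of vehicle-only cultures of the same strain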
Conditions: S. cerevisiae rad50 strain growth inhibition; at 50.0 µM; hits give high values
About 79,000 compounds went through this panel and 15% of them were active in at least one assay; those are over-represented in the sample as a whole.
Numbers only, in %.

Examples from the recorded data:
# compound, endpoint, unitInfo, val
measured = [
    ("CCCCCC(CSCC)C(=O)/C=C/c1ccccc1 (stereo not drawn)", "growth inhibition", "%", 8.3),
    ("O=S(=O)(c1ccc(OCCOc2ccc(S(=O)(=O)N3CCOCC3)cc2)cc1)N1CCOCC1", "growth inhibition", "%", 0.55),
    ("CN1CCC(CC(O)(c2ccccc2)C2CCCCC2)C1 (stereo not drawn)", "growth inhibition", "%", -5.9),
]

Could I get growth inhibition for every one of these entries?
1. COC(CNc1nc2c(s1)c1c(O)c3c(O)c(C)c4c(c32)C(=O)C(C)(O/C=C\C(OC)C(C)C(OC(C)=O)C(C)C(O)C(C)C(O)C(C)/C=C/C=C(/C)C(=O)N1)O4)OC (stereo not drawn)
2. CCCCCCCCN(C)/N=N/c1nc[nH]c1C(N)=O
3. CC(=O)c1cc(Cl)ccc1Cl
4. COc1cccc(NC(=O)C(=O)C2C=CCS2(=O)=O)c1 (stereo not drawn)
5. N#Cc1c2c(c(N=P(c3ccccc3)(c3ccccc3)c3ccccc3)n3c1nc1ccccc13)CCCC2
6. O=S(=O)(c1ccccc1)c1cccc2c[n+]3ccccc3cc12
7. [Cl][Pt+2][Cl].[NH-]C(CO)C([NH-])CO (stereo not drawn)
8. N#CCCn1nc(SCc2ccccc2)c(=O)[nH]c1=O

Given back:
1. 6.15
2. 20.7
3. 23.9
4. 0.4
5. 44.6
6. 34.6
7. 32.4
8. -2.6

* * *

Test: NCI Yeast Anticancer Drug Screen. Data for the bub3 strain (AID 167)
Details: S. cerevisiae bub3 mutant strain, at 50.0 µM, hits give high values
Compounds without any hit were thinned out: in the full panel of roughly 79,000, 15% have a hit.
endpoint: growth inhibition (%)
Give bare numbers, in %.

# molecule, unitInfo, growth inhibition
rows = [
    ("CC1(C)CN2C(c3ccccc3)=NN(c3ccccc3)C2(C)C1 (configuration not stated)", "%", 50.4),
]

Could I get growth inhibition for every one of these entries?
1. CC(C)CCOC(=O)CC(CC(=O)OCCC(C)C)C(=O)OCCC(C)C
2. Clc1ccc(C2ON=C(c3ccccc3)N2C23CC4CC(CC(C4)C2)C3)cc1 (configuration not stated)

Given back:
[-18.1, -11.9]

* * *

Test: NCI Yeast Anticancer Drug Screen. Data for the rad50 strain (AID 155);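 also: 0% = growth of vehicle-only cultures of the same strain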
Conditions: S. cerevisiae rad50 strain growth inhibition; at 50.0 µM
The panel holds about 79,000 compounds, 15% with a hit somewhere; the sample as a whole holds those more often. Active and inactive are the calls of the source. Cut-off read from the data, not from the text of the source: active = growth inhibition above about 70%; inactive = the rest.
Reply using exactly one outcome from Yes (active), No (inactive)

Previously resolved entries follow.
# molecule, labelClass
measured = [
    ("NCCC(=O)OC1CCCc2c(O)c3c(c(O)c21)C(=O)c1ccccc1C3=O (stereo unspecified)", "Yes"),
    ("Brc1cc(Br)c(-c2c(Br)cc(Br)cc2Br)c(Br)c1", "No"),
    ("C1CCC(C2CCCC[N-]2)[N-]C1.[Cl][Cu][Cl] (stereo unspecified)", "No"),
]

Asked: Short answer needed: outcome of this test for "CCc1cccc(CC)c1NC(=O)c1ccccc1Br" ?
Given back: No

Asked: Short answer needed: outcome of this test for "CCC(CC)C(=O)NC(=O)NC" ?
Given back: No

Asked: Short answer needed: outcome of this test for COC(=O)C(C(=O)C(N)=O)c1csc(-n2nc(-c3ccccc3)cc2-c2ccccc2)n1 (stereo unspecified) ?
Given back: No

* * *

Assay: NCI Yeast Anticancer Drug Screen. Data for the mec2-1 strain (AID 157)
Conditions: S. cerevisiae mec2-1 strain, at 50.0 µM, hits give high values
Procedure: Growth inhibition of yeast strains with defined genetic alterations is measured as a screen for potential anti-cancer activity. Selected strains with alterations in DNA damage repair or cell cycle control were exposed to compounds and growth inhibition was measured relative to vehicle treated controls. The strain used in this assay is mec2-1
Compounds without any hit were thinned out: in the full panel of roughly 79,000, 15% have a hit. Where a SMILES comes first, the peptide text is derived from it. [ ]: non-standard residue; d: D form. The star is where a group is joined. ξ: configuration not given here. Cbz = O=C(OCc1ccccc1)*; ξNva = CCCC(N)C(=O)O
endpoint: growth inhibition (%)
Answers are plain numbers, in %.

# compound, unitInfo, growth inhibition
records = [
    ("CN(C)c1ccc(/C=C2\\Cc3ccccc3C2=O)cc1Br", "%", -8),
]

Could I get growth inhibition for every one of these entries?
1. CCNc1ccc(-c2ccc(NCC)cc2)cc1
2. CCCCc1c(O)c2c(=O)[nH]c(C)nc2oc1=O
3. CC(c1ccccc1)n1cnc2c(=S)nc[nH]c21 (configuration not stated)
4. Cc1nc(C)c(CC#N)s1
5. CCCCCCCCCCCCCCCCS(=O)(=O)N/N=C(/c1ccc(Cl)cc1)N1CCCCC1
6. Cc1c(CCCl)c(Cl)n2c(nc3ccccc32)c1C#N
7. O=C1c2ccccc2C(=O)N1CC1CO1 (configuration not stated)
8. N#CCc1ccc(Nc2cc(=O)[nH]c(=O)[nH]2)cc1

Given back:
1: -14; 2: -5.95; 3: -20.9; 4: -10; 5: -32.1; 6: 20.8; 7: 10.3; 8: 1.5

Could I get growth inhibition for every one of these entries?
1. CC(=O)C=NCC(=O)O
2. C/C=C/[C@@]1(OC(=O)c2ccccc2)C[C@@H]2CCCC[C@@H]21

Given back:
1: -3.4; 2: 11.1

Could I get growth inhibition for every one of these entries?
1. Cc1ccc2c(c1)C(C)(C)C(C)C2(C)C (configuration not stated)
2. CCCC(NC(=O)OCc1ccccc1)C(=O)NCC(=O)NCC(=O)OC (stereo not drawn) (Cbz-[ξNva]-Gly-Gly-OMe)
3. CC(=O)COC(C)=O
4. C/C=C(\C)C(=O)N/N=C\C=C\c1ccccc1
5. NC1C(O)OCC(O)C1O (configuration not stated)
6. CC(=O)c1cc([N+](=O)[O-])c[nH]1

Given back:
-8.2
0.15
-15.6
-10.8
9.3
1.45
